Biological target: T1, orthogonal hCD122 receptor (hoRb), hCD122 with H133D and Y134F (human, UniProt P14784 27-550)
T1 sequence: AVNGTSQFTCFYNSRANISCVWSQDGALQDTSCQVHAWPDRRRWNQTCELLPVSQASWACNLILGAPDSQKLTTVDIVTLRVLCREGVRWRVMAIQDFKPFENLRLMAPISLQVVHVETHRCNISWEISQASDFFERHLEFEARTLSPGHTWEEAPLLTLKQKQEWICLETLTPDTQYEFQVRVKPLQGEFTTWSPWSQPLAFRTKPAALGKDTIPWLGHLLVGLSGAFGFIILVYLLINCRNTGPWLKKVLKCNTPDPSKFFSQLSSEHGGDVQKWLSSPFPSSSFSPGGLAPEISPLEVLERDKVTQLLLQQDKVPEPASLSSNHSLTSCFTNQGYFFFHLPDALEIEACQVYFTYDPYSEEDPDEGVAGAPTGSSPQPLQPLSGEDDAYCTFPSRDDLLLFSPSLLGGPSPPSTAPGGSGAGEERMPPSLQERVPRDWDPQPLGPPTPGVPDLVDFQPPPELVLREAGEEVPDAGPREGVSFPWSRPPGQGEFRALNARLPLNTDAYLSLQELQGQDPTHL
Assay: cell-based or functional assay
Measured Relative Proliferation Fold Change 3F8 1:10, listed per entry for reference.
value_type: Relative Proliferation Fold Change 3F8 1:10 (fold)

{"binder": "ΔL14, SQVLKA (ligand) APTSSSTKKTQLQSQLLVLLKAILNGINNYKNPKLTRMLTFKFYMPKKATELKHLQCLEEELKPLEEVLNLAQSKNFHLRPRDLISNINVIVLELKGSETTFMCEYADETATIVEFLNRWITFCQSIISTLT", "readout_value": 26.5}
{"binder": "R81Y, SQVLKA (ligand) APTSSSTKKTQLQLSQLLVLLKAILNGINNYKNPKLTRMLTFKFYMPKKATELKHLQCLEEELKPLEEVLNLAQSKNFHLYPRDLISNINVIVLELKGSETTFMCEYADETATIVEFLNRWITFCQSIISTLT", "readout_value": 16.6}

Data provenance: patent US20210196796A1
